# Test system: MS2 coat protein
# PROTOCOL TEXT: apparent Kd, MS2 coat protein; higher = weaker binding; RNA-MaP array; FMN 200 µM where present
# CONDITION DETAILS: ligand present: flavin mononucleotide; designed as: OFF switch for flavin mononucleotide
Decision: apparent Kd compared against 0.07 µM; not below it gives 1.0, below it gives 0.0.

sequence_entry=AAAAGGUGAGGAUAUACAUGAGGAUCACCCAUGUAGAAAGGAAGUGUAAAAAAAAAGUGUAGAAGGCAUCAUGA label=0.0
sequence_entry=GCACCAAGAGGAUAUACCGAGGUCAUCUACUUUGCAUAGCGACAUGAGGAUCACCCAUGUAGAAGGUUUGUCGU label=1.0
sequence_entry=GCUGGGUCAGGAUAUACAAGAUCGAAAGAUCAAAGAUUCGUACAUGAGGAUCACCCAUGUAGAAGGGACUGGGC label=0.0
sequence_entry=CCGCCAAUCGAGAAGGGCCCAUGUGCUACGUCGGCAGGAUAUCGACAUGAGGAUCACCCAUGUUGGCGAUCCUUUUUGGCGAAC label=1.0
sequence_entry=GGAUAGGACAGAGGAUAUACCGAUAGGAUCUACUAUCGAAGAAUCCUCACAUGAGGAUCACCCAUGUAGAAGGCUGUCCUAUCG label=1.0

Challenge: I'd appreciate it if you could say whether AUGCGUGGCUAGGAUAUUGAGGAAAUUAGUCAGCGAGAAGGAGCCACAUGAGGAUCACCCAUGUGGUGAAGCUC has apparent Kd at least equal to 0.07 µM.
Response given: 0.0

Challenge: I'd appreciate it if you could say whether AAAAAGACAGGAUAUACAUGAGGAUCACCCAUGUGAAAAAAAAAAAAAAAAAAAAAGUGUAGAAGGGUCAAAAA has apparent Kd at least equal to 0.07 µM.
Response given: 0.0

Challenge: I'd appreciate it if you could say whether ACUAUACGAGGAUAUGCUGUCAGUACUCCGAGGUUAGUUUGACAUGAGGAUCACCCAUGUAGAAGGCGUUUACU has apparent Kd at least equal to 0.07 µM.
Response given: 0.0

Challenge: I'd appreciate it if you could say whether GGCGGCGCGGGCCACCGCAGAACCAGAAGGACAUGAGGAUCACCCAUGUAACAAAACAGGGCGGUGUAGGAUAUGGCAGACCCG has apparent Kd at least equal to 0.07 µM.
Response given: 0.0

Challenge: I'd appreciate it if you could say whether UAUCCGUCAGUAGGAUAUAUGCCGAGUCAUUGCAUAGAAGGACUGACAUGAGGAUCACCCAUGUCAGAUUGCGCUGGUCUUCCG has apparent Kd at least equal to 0.07 µM.
Response given: 0.0

Challenge: I'd appreciate it if you could say whether UCGAACUUUCGUGUAAUUCGCACAUGAGGAUCACCCAUGUACGAGGAUAUGUACCUAAACGGCUAACAGAAGGCGUACUGGGCA has apparent Kd at least equal to 0.07 µM.
Response given: 1.0

Challenge: I'd appreciate it if you could say whether GGGAAGUAAGGAUAUGCUGCUCGUCACUUGCGUGAUGAGUAGCAGAAGGUACAUGAGGAUCACCCAUGUAAAGA has apparent Kd at least equal to 0.07 µM.
Response given: 0.0

Challenge: I'd appreciate it if you could say whether GUGUAGAUAGGAUAUGCAUGAGUCUAGCGAAGCUAGGCUCUACAUGAGGAUCACCCAUGUAGAAGGGUCUACAC has apparent Kd at least equal to 0.07 µM.
Response given: 0.0

Challenge: I'd appreciate it if you could say whether GUUUAGUGAGGAUAUGUGGCUUCGAUCGUGCGCGGUCGGCUACAGAAGGCACAUGAGGAUCACCCAUGUUCCUC has apparent Kd at least equal to 0.07 µM.
Response given: 1.0

Challenge: I'd appreciate it if you could say whether CCAUAAAAGAUCCAAAAUUACAACAUGAGGAUCACCCAUGUGCAGGAUAUCGUGAAAGUAAAAUACGAGAAGGGCAAAAACUGC has apparent Kd at least equal to 0.07 µM.
Response given: 1.0

Challenge: I'd appreciate it if you could say whether GUACUGUAGUGAGGAUAUACGAGAUCGAUAGAUCGGCGAUCCAUAUAUACAUGAGGAUCACCCAUGUAGAAGGCACUUCAGUAC has apparent Kd at least equal to 0.07 µM.
Response given: 1.0

Challenge: I'd appreciate it if you could say whether CAAUGCCUGUCGAUGCUCGACAUGAGGAUCACCCAUGUAUAGCAGGAUAUGCAGAACUGACUCGUGCAGAAGGGCUAUACCUAA has apparent Kd at least equal to 0.07 µM.
Response given: 0.0

Challenge: I'd appreciate it if you could say whether GCUCUGCGAGGAUAUACAUGAGGAUCACCCAUGUGCGAGUUACUUGUGAGGUCGGUUGGUAGAAGGCGCGGAGG has apparent Kd at least equal to 0.07 µM.
Response given: 1.0

Challenge: I'd appreciate it if you could say whether GGAAAACAUGAGGAUCACCCAUGUAAGGAUAUGCAAAAGGAUAUAGAAGGAAAAAAAAGCAGAAGGUACAAAGG has apparent Kd at least equal to 0.07 µM.
Response given: 1.0
